method: qHTS of pediatric cancer cell lines to identify multiple opportunities for drug repurposing: Primary screen for SJ-GBM2 cells (AID 1347091)
particulars: SJ-GBM2 viability, CellTiter-Glo luminescence, 48 h; series mostly up to 46 µM
Results filed as inconclusive are left out. Activity calls are given as the source filed them. The call rests on the fitted dose curve; in most records, active means well fitted cell-killing curve with a large enough effect; inconclusive means small, poorly fitted or top-dose-only effect; inactive means no such curve, though single readings can be large or run the other way.
Permitted responses: active, inactive

Record lookup: outcome of this test for CCN(CC)CCn1c(=O)c(Cc2ccc(OC)cc2)nc2ccccc21 ?
inactive

Record lookup: outcome of this test for COC(=O)Nc1nc2ccc(C(=O)c3ccccc3)cc2[nH]1 ?
active

Record lookup: outcome of this test for CCOc1cc(N)c(Cl)cc1C(=O)NCC1CN(Cc2ccc(F)cc2)CCO1 (stereo unspecified) ?
inactive

Record lookup: outcome of this test for OC(Cn1cncn1)(Cn1cncn1)c1ccc(F)cc1F ?
inactive

Record lookup: outcome of this test for CNS(=O)(=O)Cc1ccc2[nH]cc(CCN(C)C)c2c1 ?
inactive

Record lookup: outcome of this test for CNCC[C@H](Oc1cccc2ccccc12)c1cccs1 ?
inactive

Record lookup: outcome of this test for CCC(=O)O[C@]1(C(=O)CCl)[C@@H](C)C[C@H]2[C@@H]3CCC4=CC(=O)C=C[C@]4(C)[C@@]3(F)[C@@H](O)C[C@@]21C ?
inactive

Record lookup: outcome of this test for CC1CC2C3CCC4=CC(=O)C=C[C@]4(C)[C@@]3(F)[C@@H](O)C[C@]2(C)[C@@]1(O)C(=O)CO (stereo partly specified) ?
inactive

Record lookup: outcome of this test for CC1=NN(c2ccccc2)C(=O)C1 ?
inactive

Record lookup: outcome of this test for OCc1ccc(-c2nn(Cc3ccccc3)c3ccccc23)o1 ?
inactive

Record lookup: outcome of this test for CC(=O)[C@H]1CC[C@H]2[C@@H]3CC=C4C[C@@H](O)CC[C@]4(C)[C@H]3CC[C@]12C ?
inactive

Record lookup: outcome of this test for CCC(=O)O[C@]1(C(=O)SCF)[C@H](C)C[C@H]2[C@@H]3C[C@H](F)C4=CC(=O)C=C[C@]4(C)[C@@]3(F)[C@@H](O)C[C@@]21C ?
inactive

Record lookup: outcome of this test for Cc1nnc(C(=O)NC(C)(C)c2nc(C(=O)NCc3ccc(F)cc3)c(O)c(=O)n2C)o1 ?
inactive

Record lookup: outcome of this test for CCOCC(O)COc1ccc(NC(=O)CC[S+](C)C)cc1 (stereo unspecified) ?
inactive

Record lookup: outcome of this test for N=C(N)c1ccc(OCCCCCOc2ccc(C(=N)N)cc2)cc1 ?
inactive

Record lookup: outcome of this test for C[C@]12C=CC(=O)C=C1CC[C@@H]1[C@@H]2C(=O)C[C@@]2(C)[C@H]1CC[C@]2(O)C(=O)CO ?
inactive

Record lookup: outcome of this test for Cc1ccc(S(=O)(=O)N[C@@H](Cc2ccccc2)C(=O)CCl)cc1 ?
active

Record lookup: outcome of this test for CS(=O)(=O)c1ccc([C@@H](O)[C@@H](CO)NC(=O)C(Cl)Cl)cc1 ?
inactive

Record lookup: outcome of this test for Cc1c(-c2ccc(O)cc2)n(Cc2ccc(OCCN3CCCCCC3)cc2)c2ccc(O)cc12 ?
inactive

Record lookup: outcome of this test for COc1ccc(-c2ccc3cc(C(=O)O)ccc3c2)cc1C12CC3CC(CC(C3)C1)C2 ?
active

Record lookup: outcome of this test for COc1cccc(N(C)C(=S)Oc2ccc3c(c2)CCCC3)n1 ?
inactive

Record lookup: outcome of this test for COc1nc(N)nc2c1ncn2[C@@H]1O[C@H](CO)[C@@H](O)[C@@H]1O ?
inactive

Record lookup: outcome of this test for NC(=O)c1cccnc1 ?
inactive

Record lookup: outcome of this test for Nc1ccc(S(=O)(=O)Nc2ccccn2)cc1 ?
inactive

Record lookup: outcome of this test for Cc1cccc(Nc2ccncc2S(=O)(=O)NC(=O)NC(C)C)c1 ?
inactive

Record lookup: outcome of this test for CN(C)CCc1c[nH]c2ccc(CS(=O)(=O)N3CCCC3)cc12 ?
inactive

Record lookup: outcome of this test for O=C(O)c1cc(=O)[nH]c(=O)[nH]1 ?
inactive

Record lookup: outcome of this test for O=S(=O)(O)CCS ?
inactive

Record lookup: outcome of this test for Cc1cc(NS(=O)(=O)c2ccc(N)cc2)no1 ?
inactive

Record lookup: outcome of this test for CC(C)C1CCC(C(=O)N[C@H](Cc2ccccc2)C(=O)O)CC1 (stereo partly specified) ?
inactive

Record lookup: outcome of this test for C[C@@H](NCCCc1cccc(C(F)(F)F)c1)c1cccc2ccccc12 ?
inactive

The measurements presented in this section are drawn from PubChem BioAssay (NCATS).
